- System: Rattus norvegicus
- experiment: Maximum fall in blood pressure was evaluated at an oral dose of 0.3 mg/kg in (SHR) spontaneous hypertensive rats
- Format: functional
Max fall in blood pressure by entry:
Unit % implied. Number only.

Use the examples below as a reference point.
CC1(C)Oc2ccc(C#N)cc2C(N2CCOC2=O)[C@@H]1O (stereo partly specified); 20
CC1(C)Oc2ccc(C#N)cc2C(N2CCOCC2=O)[C@@H]1O (stereo partly specified); 26
CC1(C)Oc2cc([N+](=O)[O-])ccc2C(N2CCCC2=O)[C@@H]1O (stereo partly specified); 12
CC1(C)C=C(N2CCCCC2=O)c2cc(C#N)ccc2O1; 25
CC1(C)Oc2ccc(C#N)cc2C(N2CCCC2=S)[C@@H]1O (stereo partly specified); 39

// query Max fall in blood pressure value for entry CN1CCN(C2c3cc(C#N)ccc3OC(C)(C)[C@H]2O)C(=O)C1 (stereo partly specified)
37

// query Max fall in blood pressure value for entry CC(=O)c1ccc2c(c1)C(N1CCCCC1=O)[C@H](O)C(C)(C)O2 (stereo partly specified)
29

// query Max fall in blood pressure value for entry COC(=O)c1ccc2c(c1)C(N1CCCCC1=O)[C@H](O)C(C)(C)O2 (stereo partly specified)
13

// query Max fall in blood pressure value for entry CC1(C)Oc2ccc(C#N)cc2C(N2CCCC2=O)[C@@H]1O (stereo partly specified)
39

// query Max fall in blood pressure value for entry CC1(C)C=C(N2CCCC2=O)c2cc(C#N)ccc2O1
47

// query Max fall in blood pressure value for entry CC(=O)c1ccc2c(c1)C(N1CCCC1=O)[C@H](O)C(C)(C)O2 (stereo partly specified)
33

----------
- System: Rattus norvegicus
- experiment: Maximum fall in blood pressure was evaluated at an oral dose of 0.3 mg/kg in (SHR) spontaneous hypertensive rats
- Type: functional
measurement type: Max fall in blood pressure (%)
Unit % implied. Number only.

CC1(C)Oc2ccc([N+](=O)[O-])cc2C(N2CCCC2=O)[C@@H]1O (some centres not stated); 27
CC1(C)Oc2ccc(C#N)cc2C(N2CCCC2=O)[C@@H]1OC=O (some centres not stated); 31
CC1(C)Oc2ccc(C#N)cc2C(N2CCN(Cc3ccccc3)CC2=O)[C@@H]1O (some centres not stated); 26
CC1(C)Oc2ccc(C#N)cc2C(N2CCNCC2=O)[C@@H]1O (some centres not stated); 53
CC1(C)Oc2ccc(C#N)cc2C(N2CCCC2=O)C1O (single isomer, unassigned); 47

// query Max fall in blood pressure value for entry COC(=O)c1ccc2c(c1)C(N1CCCC1=O)[C@H](O)C(C)(C)O2 (some centres not stated)
11

// query Max fall in blood pressure value for entry CC1(C)Oc2ccc(C#N)cc2C(N2CCSC2=O)[C@@H]1O (some centres not stated)
27

----------
Max fall in blood pressure by entry:
- Test system: Rattus norvegicus
- experiment: Maximum fall in blood pressure was evaluated at an oral dose of 3.0 mg/kg in (SHR) spontaneous hypertensive rats
- Format: functional
Unit % implied. Number only.

CC(=O)O[C@H]1C(N2CCCC2=O)c2cc(C#N)ccc2OC1(C)C (stereo partly specified); 39
CC(=O)N1CCN(C2c3cc(C#N)ccc3OC(C)(C)[C@H]2O)C(=O)C1 (stereo partly specified); 23
CC(=O)Nc1cc2c(cc1[N+](=O)[O-])OC(C)(C)[C@@H](O)C2N1CCCC1=O (stereo partly specified); 14

Lab note: need Max fall in blood pressure for CC1(C)CC(N2CCCC2=O)c2cc(C#N)ccc2O1 (stereo unspecified) on Rattus norvegicus, anyone have it?
45

Lab note: need Max fall in blood pressure for CC1(C)Oc2ccc(C#N)cc2C(N2CCN(C(=O)c3ccco3)CC2=O)[C@@H]1O (stereo partly specified) on Rattus norvegicus, anyone have it?
43

Lab note: need Max fall in blood pressure for COC(=O)C1=C(C)NC(C)=C(C(=O)OC)C1c1ccccc1[N+](=O)[O-] on Rattus norvegicus, anyone have it?
27
